Test system: DBTRG-05MG (Glioblastoma)
Assay: Bliss excess, mean over the matrix (fraction); higher = more synergy
Parameter Bliss excess: see the listing below.

Examples with their reported Bliss excess follow.
Compound | Bliss excess
C=CCn1c(=O)c2cnc(Nc3ccc(N4CCN(C)CC4)cc3)nc2n1-c1cccc(C(C)(C)O)n1 [AZD1775] + O=C(c1cc(Cc2n[nH]c(=O)c3ccccc23)ccc1F)N1CCN(C(=O)C2CC2)CC1 [Olaparib] (first compound max 1 µM, partner max 10 µM) | -0.0747
CN(C)CCCOc1ccc(-c2ccc3ncc4c(c3c2)n(C2CCOCC2)c(=O)n4C)cn1 [AZD0156] + O=C(c1cc(Cc2n[nH]c(=O)c3ccccc23)ccc1F)N1CCN(C(=O)C2CC2)CC1 [Olaparib] (first compound max 3 µM, partner max 3 µM) | -0.0207
COc1cccc2c1C(=O)c1c(O)c3c(c(O)c1C2=O)C[C@@](O)(C(=O)CO)C[C@@H]3O[C@H]1C[C@H](N)[C@H](O)[C@H](C)O1 [Doxorubicin] + Cc1cc2ncnn2cc1Nc1ncc2c(n1)n(C1CCOCC1)c(=O)n2C [AZD7648] (first compound max 1 µM, 7x7, partner max 10 µM) | 0.0225
NC1(C(=O)N[C@@H](CCO)c2ccc(Cl)cc2)CCN(c2ncnc3[nH]ccc23)CC1 [Capivasertib] + Cn1cnc2c(F)c(Nc3ccc(Br)cc3Cl)c(C(=O)NOCCO)cc21 [Selumetinib] (first compound max 10 µM, 7x7, partner max 10 µM) | -0.0148
COc1nnc2ccc(N3CCC(c4ccc(OCCN5CCN(C)C(=O)[C@H]5C)cc4)CC3)nn12 [AZD5153] + Cc1c2c(nn1C)CSCc1cc(n(C)n1)CSc1cc(c3ccccc3c1)OCCCc1c(C(=O)O)n(C)c3c-2c(Cl)ccc13 [AZD5991] (first compound max 1 µM, 7x7, partner max 1 µM) | -0.0296
COc1nnc2ccc(N3CCC(c4ccc(OCCN5CCN(C)C(=O)[C@H]5C)cc4)CC3)nn12 [AZD5153] + CN(CC[C@H](CSC1=CC=CC=C1)NC2=C(C=C(C=C2)S(=O)(=O)NC(=O)C3=CC=C(C=C3)N4CCC(CC4)[C@H](C5=CC=CC=C5C6=CC=C(C=C6)Cl)O)S(=O)(=O)C(F)(F)F)CCO [AZD4320] (first compound max 1 µM, 7x7, partner max 1 µM) | -0.0517

Let's switch to this compound now.
Incoming: Look up Bliss excess for this compound: CC1(C)CCC(CN2CCN(c3ccc(C(=O)NS(=O)(=O)c4ccc(NCC5CCOCC5)c([N+](=O)[O-])c4)c(Oc4cnc5[nH]ccc5c4)c3)CC2)=C(c2ccc(Cl)cc2)C1 [Venetoclax] + C[C@@H]1COCCN1C2=NC(=NC(=C2)C3(CC3)[S@](=N)(=O)C)C4=C5C=CNC5=NC=C4 [AZD6738] (first compound max 1 µM, 7x7, partner max 10 µM)
Outgoing: 0.0023

----------
Tested on: ES6 (Ewing's Sarcoma)
Experiment: combination Emax (second highest fraction inhibited in the dose matrix, 72 h); higher = more inhibition; extreme values may be limits of the assay
Assay metric: combination Emax
Write the value as a bare number.

Examples with their reported combination Emax follow.
Molecule | combination Emax
Cn1cnc2c(F)c(Nc3ccc(Br)cc3Cl)c(C(=O)NOCCO)cc21 [Selumetinib] + C[C@@H]1COCCN1C2=NC(=NC(=C2)C3(CC3)[S@](=N)(=O)C)C4=C5C=CNC5=NC=C4 [AZD6738] (first compound max 10 µM, 7x7, partner max 10 µM) | 0.367
CC1(C)CCC(CN2CCN(c3ccc(C(=O)NS(=O)(=O)c4ccc(NCC5CCOCC5)c([N+](=O)[O-])c4)c(Oc4cnc5[nH]ccc5c4)c3)CC2)=C(c2ccc(Cl)cc2)C1 [Venetoclax] + COc1cc(Nc2ncc3c(n2)-c2ccc(Cl)cc2C(c2c(F)cccc2OC)=NC3)ccc1C(=O)O [Alisertib] (first compound max 1 µM, 7x7, partner max 10 µM) | 0.277
N#Cc1cnc(Nc2cc(NC[C@H]3CNCCO3)c(C(F)(F)F)cn2)cn1 [SRA737] + O=c1[nH]cc(F)c(=O)[nH]1 [5-Fluorouracil] (first compound max 10 µM, 7x7, partner max 20 µM) | 0.161
Cc1cc2ncnn2cc1Nc1ncc2c(n1)n(C1CCOCC1)c(=O)n2C [AZD7648] + COc1cc([C@@H]2c3cc4c(cc3[C@@H](O[C@@H]3O[C@@H]5CO[C@@H](C)O[C@H]5[C@H](O)[C@H]3O)[C@H]3COC(=O)[C@H]23)OCO4)cc(OC)c1O [Etoposide] (first compound max 10 µM, 7x7, partner max 10 µM) | 0.36
CN(CCO)CC[C@H](CSc1ccccc1)Nc1ccc(S(=O)(=O)NC(=O)c2ccc(N3CCC([C@@H](O)c4ccccc4-c4ccc(Cl)cc4)CC3)cc2)cc1S(=O)(=O)C(F)(F)F [AZD4320] + Cn1cnc2c(F)c(Nc3ccc(Br)cc3Cl)c(C(=O)NOCCO)cc21 [Selumetinib] (first compound max 1 µM, 7x7, partner max 3 µM) | 0.449

Let's switch to this molecule now.
Incoming: Look up combination Emax for this molecule: COc1nnc2ccc(N3CCC(c4ccc(OCCN5CCN(C)C(=O)[C@H]5C)cc4)CC3)nn12 [AZD5153] + C[C@@H]1COCCN1C2=NC(=NC(=C2)C3(CC3)[S@](=N)(=O)C)C4=C5C=CNC5=NC=C4 [AZD6738] (first compound max 1 µM, 7x7, partner max 10 µM)
Outgoing: 0.585

----------
System: AM-38 (Glioblastoma)
Test: combination Emax (second highest fraction inhibited in the dose matrix, 72 h); higher = more inhibition; extreme values may be limits of the assay
// criterion not met strictly below 0.5 in combination Emax; criterion met otherwise

Observe how each entry below is paired with its result.
Molecule | Qualitative label
COc1cccc(OCCCN)c1-c1cc(Nc2cnc(C#N)cn2)n[nH]1 [Prexasertib] + C[C@@H]1COCCN1C2=NC(=NC(=C2)C3(CC3)[S@](=N)(=O)C)C4=C5C=CNC5=NC=C4 [AZD6738] (first compound max 1 µM, 7x7, partner max 10 µM) | criterion met
CCN(CCO)CCCOc1ccc2c(Nc3cc(CC(=O)Nc4cccc(F)c4)[nH]n3)ncnc2c1 [AZD2811] + C=CCn1c(=O)c2cnc(Nc3ccc(N4CCN(C)CC4)cc3)nc2n1-c1cccc(C(C)(C)O)n1 [AZD1775] (first compound max 1 µM, partner max 1 µM) | criterion not met
Cn1cnc2c(F)c(Nc3ccc(Br)cc3Cl)c(C(=O)NOCCO)cc21 [Selumetinib] + CCN(CCO)CCCOc1ccc2c(Nc3cc(CC(=O)Nc4cccc(F)c4)[nH]n3)ncnc2c1 [AZD2811] (first compound max 10 µM, 7x7, partner max 1 µM) | criterion met

Please look at the following molecule next.
Incoming: Does combination Emax meet or surpass 0.5 for CC(=O)Nc1cccc(-n2c(=O)n(C3CC3)c(=O)c3c(Nc4ccc(I)cc4F)n(C)c(=O)c(C)c32)c1 [Trametinib] + Cc1nc(-c2cn3c(n2)-c2ccc(-c4cnn(C(C)(C)C(N)=O)c4)cc2OCC3)n(C(C)C)n1 [Taselisib] (first compound max 1 µM, 7x7, partner max 10 µM) ?
Outgoing: criterion met

----------
Parameter Bliss excess: see the listing below.
Tested on: IST-MEL1 (Melanoma)
Assay: Bliss excess, mean over the matrix (fraction); higher = more synergy
Write the value as a bare number.

Compound | Bliss excess
CCc1c2c(nc3ccc(O)cc13)-c1cc3c(c(=O)n1C2)COC(=O)[C@]3(O)CC [SN-38] + O=C(c1cc(Cc2n[nH]c(=O)c3ccccc23)ccc1F)N1CCN(C(=O)C2CC2)CC1 [Olaparib] (first compound max 0.3 µM, 7x7, partner max 10 µM) | 0.0125
CN(CCO)CC[C@H](CSc1ccccc1)Nc1ccc(S(=O)(=O)NC(=O)c2ccc(N3CCC([C@@H](O)c4ccccc4-c4ccc(Cl)cc4)CC3)cc2)cc1S(=O)(=O)C(F)(F)F [AZD4320] + C=CCn1c(=O)c2cnc(Nc3ccc(N4CCN(C)CC4)cc3)nc2n1-c1cccc(C(C)(C)O)n1 [AZD1775] (first compound max 1 µM, partner max 1 µM) | 0.0339
CS(=O)(=O)CCNCc1ccc(-c2ccc3ncnc(Nc4ccc(OCc5cccc(F)c5)c(Cl)c4)c3c2)o1 [Lapatinib] + C[C@@H](Oc1cc(-c2cnn(C3CCNCC3)c2)cnc1N)c1c(Cl)ccc(F)c1Cl [Crizotinib] (first compound max 10 µM, 7x7, partner max 10 µM) | -0.0095
NC1(C(=O)N[C@@H](CCO)c2ccc(Cl)cc2)CCN(c2ncnc3[nH]ccc23)CC1 [Capivasertib] + C[C@@H]1COCCN1C2=NC(=NC(=C2)C3(CC3)[S@](=N)(=O)C)C4=C5C=CNC5=NC=C4 [AZD6738] (first compound max 10 µM, 7x7, partner max 10 µM) | -0.0446
CC1(C)CCC(CN2CCN(c3ccc(C(=O)NS(=O)(=O)c4ccc(NCC5CCOCC5)c([N+](=O)[O-])c4)c(Oc4cnc5[nH]ccc5c4)c3)CC2)=C(c2ccc(Cl)cc2)C1 [Venetoclax] + Cn1cnc2c(F)c(Nc3ccc(Br)cc3Cl)c(C(=O)NOCCO)cc21 [Selumetinib] (first compound max 1 µM, 7x7, partner max 3 µM) | -0.0654

Incoming: Look up Bliss excess for this compound: Cc1cc2ncnn2cc1Nc1ncc2c(n1)n(C1CCOCC1)c(=O)n2C [AZD7648] + COc1cc([C@@H]2c3cc4c(cc3[C@@H](O[C@@H]3O[C@@H]5CO[C@@H](C)O[C@H]5[C@H](O)[C@H]3O)[C@H]3COC(=O)[C@H]23)OCO4)cc(OC)c1O [Etoposide] (first compound max 10 µM, 7x7, partner max 10 µM)
Outgoing: 0.0192

Incoming: Look up Bliss excess for this compound: C[C@@H]1COCCN1c1cc(C2([S@](C)(=N)=O)CC2)nc(-c2ccnc3[nH]ccc23)n1 [AZD6738] + O=C(c1cc(Cc2n[nH]c(=O)c3ccccc23)ccc1F)N1CCN(C(=O)C2CC2)CC1 [Olaparib] (first compound max 10 µM, 7x7, partner max 10 µM)
Outgoing: 0.035
